Reported Ki values follow for various compounds
molecular target: SARS-CoV-2 NSP3 macrodomain (Mac1) (Severe acute respiratory syndrome coronavirus 2); assay: biochemical; assay type: binding; details: SARS CoV-2 macrodomain HTRF assay; read-out: Ki
Quantity Measured: Ki (µM)

1. O=C1CCc2cc(C(=O)N3CC(C(=O)O)CCC34CCCC4)c(F)cc2N1 (stereo not drawn) [AVI-338] = 740
2. OCC(Cc1ccccc1)Nc1ncnc2[nH]ccc12 (stereo not drawn) [AVI-313] = 120
3. CC(CNC(=O)c1ccc2c(c1)CCC(=O)N2)C(=O)O (stereo not drawn) [AVI-328] = 210

====

Reported Ligand efficiency (binding enery per heavy atom) values follow for various molecules
target: SARS-CoV-2 NSP3 macrodomain (Mac1) (Severe acute respiratory syndrome coronavirus 2); assay: biochemical; assay type: binding; settings: from SARS CoV-2 macrodomain HTRF assay
Quantity Measured: Ligand efficiency (binding enery per heavy atom)

1. OC[C@@H]1C[C@H](O)CN1c1ncnc2[nH]ccc12 = 0.31
2. OC1CCC(O)(CNc2ncnc3[nH]ccc23)CC1 (stereo not drawn) = 0.26
3. CCC(O)[C@H]1CCCN1c1ncnc2[nH]ccc12 (stereo partly drawn) = 0.34
4. OC1(CNc2ncnc3[nH]ccc23)CCCC(C(F)(F)F)C1 (stereo not drawn) = 0.24
5. CC(O)C1CCCN1c1ncnc2[nH]ccc12 (stereo not drawn) = 0.35
6. CC(Nc1ncnc2[nH]ccc12)C1(O)CCCCC1 (stereo not drawn) = 0.32
7. CC1(C)CCN(c2ncnc3[nH]ccc23)C(CO)C1 (stereo not drawn) = 0.31
8. CC(C)(O)C1C2CCC2CN1c1ncnc2[nH]ccc12 (stereo not drawn) = 0.32
9. Cc1c[nH]c2ncnc(NCC3(O)CCC(C)CC3)c12 (stereo not drawn) = 0.26
10. O[C@H]1CC[C@H]2CCN(c3ncnc4[nH]ccc34)[C@H]21 = 0.34
11. OC1(CNc2ncnc3[nH]ccc23)CCC2(CC1)OCCO2 = 0.23
12. Cc1c[nH]c2ncnc(NCC3(O)CCC(C)(C)CC3)c12 = 0.21
13. OCC1CC=CCN1c1ncnc2[nH]ccc12 (stereo not drawn) = 0.35
14. OC1(CNc2ncnc3[nH]ccc23)CCOCC1 = 0.28
15. OC1(CNc2ncnc3[nH]ccc23)CCSCC1 = 0.29
16. CC(C)(O)C1C2CCCCC2CN1c1ncnc2[nH]ccc12 (stereo not drawn) = 0.25
17. CC1(C)C[C@@H](CO)N(c2ncnc3[nH]ccc23)C1.O=C(O)C(F)(F)F = 0.35
18. OC1(CNc2ncnc3[nH]ccc23)CCC(F)(F)CC1 = 0.27
19. CC(C)(O)[C@@H]1CCCN1c1ncnc2[nH]ccc12 = 0.31
20. O[C@H]1CC[C@@H]2CCN(c3ncnc4[nH]ccc34)[C@@H]21 = 0.35
21. Cc1c[nH]c2ncnc(NCC3(O)CCOCC3)c12 = 0.28

====

Reported Ki values follow for various compounds
biological target: SARS-CoV-2 NSP3 macrodomain (Mac1) (Severe acute respiratory syndrome coronavirus 2); assay: biochemical; assay type: binding; conditions: dose-response; read-out: SARS CoV-2 macrodomain HTRF assay: Ki
Quantity Measured: Ki

1. OCC1CC2(CCCC2)CN1c1ncnc2[nH]ccc12 (stereo not shown) [AVI-3708] = 25 µM
2. CC(C)(O)C1C2CCC2CN1c1ncnc2[nH]ccc12 (stereo not shown) [AVI-4128] = 22 µM
3. CC(C)(O)[C@@H]1CCCN1c1ncnc2[nH]ccc12 [AVI-1445] = 100 µM
4. CC(C)(O)C1C2CCCCC2CN1c1ncnc2[nH]ccc12 (stereo not shown) [AVI-4127] = 120 µM
5. Cc1c[nH]c2ncnc(NCC3(O)CCSCC3)c12 [AVI-4195] = 48 µM
6. CC(Nc1ncnc2[nH]ccc12)C1(O)CCCCC1 (stereo not shown) [AVI-4321] = 45 µM
7. OC1(CNc2ncnc3[nH]ccc23)CCSCC1 [AVI-4319] = 160 µM
8. O[C@H]1CC[C@H]2CCN(c3ncnc4[nH]ccc34)[C@H]21 [AVI-5997] = 34 µM
9. OC1(CNc2ncnc3[nH]ccc23)COC2CC1C2 (stereo not shown) [AVI-4313] = 120 µM
10. CC1(C)CCN(c2ncnc3[nH]ccc23)C(CO)C1 (stereo not shown) [AVI-5994] = 63 µM

====

Reported inhibition at 200 µM values follow for various compounds
target: SARS-CoV-2 NSP3 macrodomain (Mac1) (Severe acute respiratory syndrome coronavirus 2, UniProt P0DTD1); test: biochemical; format: binding; conditions: Single dose, 200 μM; mean of three technical replicates; read-out: Average % competition
Quantity Measured: inhibition at 200 µM (%)

1. CNc1ccc(NS(=O)(=O)c2cc3cccc(C)c3s2)cn1 = 18
2. Cc1cc2c(=O)n(CCN3C(=O)c4ccccc4S3(=O)=O)nnc2s1 = 11
3. Cc1c(C)n(Cc2ccccc2)c2ncnc(N)c12 = 19
4. O=C(O)C1CCCN1S(=O)(=O)c1cccc2nsnc12 (stereo not drawn) = 23

====

molecular target: SARS-CoV-2 NSP3 macrodomain (Mac1), P43 crystal form (Severe acute respiratory syndrome coronavirus 2); assay type: binding; conditions: stereoisomer(s) of ligand modeled in Mac1 crystal structure
Quantity Measured: Isomers modeled

1. OCC(COCc1ccccc1)Nc1ncnc2[nH]ccc12 (stereo not drawn) = S,R
2. Cc1c[nH]c2ncnc(NCC3(O)CCC3)c12 = achiral,achiral
3. CCC(CC)(CO)Nc1ncnc2[nH]ccc12 = achiral,achiral
4. O=C(O)C(F)(F)F.OCC12CC(CN1c1ncnc3[nH]ccc13)C2 = achiral
5. OC[C@@H]1C[C@@H]2CCC[C@@H]2N1c1ncnc2[nH]ccc12 = SSS
6. OCC1CC2(CCC2)CN1c1ncnc2[nH]ccc12 (stereo not drawn) = S,S
7. O=C(O)C(F)(F)F.OCC1(Nc2ncnc3[nH]ccc23)CC1 = achiral
8. O=C(O)C(F)(F)F.OC[C@@H]1CC2(CC2)CN1c1ncnc2[nH]ccc12 = S,S
9. Cc1sc2ncnc(Sc3ccccc3C(=O)O)c2c1C = achiral,achiral
10. Cc1cc2c(=O)n(CCN3C(=O)c4ccccc4S3(=O)=O)nnc2s1 = achiral
11. OCC(Cc1c[nH]c2ccccc12)Nc1ncnc2[nH]ccc12 (stereo not drawn) = R,S
12. OCC(Cc1ccc(I)cc1)Nc1ncnc2[nH]ccc12 (stereo not drawn) = S,R
13. OCC1C2CCC(C2)N1c1ncnc2[nH]ccc12 (stereo not drawn) = SSR
14. Cc1ccc(CC(CO)Nc2ncnc3[nH]ccc23)cc1C (stereo not drawn) = R,S
15. O[C@H]1CC[C@@H]2CCN(c3ncnc4[nH]ccc34)[C@@H]21 = SRS
16. O=C(O)C(F)(F)F.OCC1(Nc2ncnc3[nH]ccc23)CCC1 = achiral,achiral
17. CN1CCN(c2ncnc3[nH]ccc23)C(CO)C1 (stereo not drawn) = R,R
18. Cc1c(C)n(Cc2ccccc2)c2ncnc(N)c12 = achiral
19. O=C(O)C(F)(F)F.OCC1(Nc2ncnc3[nH]ccc23)CCCC1 = achiral
20. CC1(C)CCC(CO)N(c2ncnc3[nH]ccc23)C1 (stereo not drawn) = R,R,S
21. OCC(Nc1ncnc2[nH]ccc12)C1CCc2ccccc21 (stereo not drawn) = RR,SR

====

target: SARS-CoV-2 NSP3 macrodomain (Mac1) (Severe acute respiratory syndrome coronavirus 2); test: biochemical; format: binding; settings: SARS CoV-2 macrodomain HTRF assay
Quantity Measured: Ligand efficiency (binding enery per heavy atom)

1) Cc1c[nH]c2ncnc(NCC3(O)CCC3)c12 = 0.39
2) CC(CNC(=O)c1ccc2c(c1)CCC(=O)N2)C(=O)O (centres unmarked) = 0.25
3) OCC(Cc1ccccc1)Nc1ncnc2[nH]ccc12 (centres unmarked) = 0.27
4) O=C(O)C(F)(F)F.OC[C@H](Cc1ccc(O)cc1)Nc1ncnc2[nH]ccc12 = 0.21
5) CCC(CC)(CO)Nc1ncnc2[nH]ccc12 = 0.36
6) O=C1CCc2cc(C(=O)N3CC(C(=O)O)CCC34CCCC4)c(F)cc2N1 (centres unmarked) = 0.16
7) Cc1c[nH]c2ncnc(NCC(C)(C)O)c12 = 0.40
8) OCCC(CO)Nc1ncnc2[nH]ccc12 (centres unmarked) = 0.37
9) O=C(O)C(F)(F)F.OCC1(Nc2ncnc3[nH]ccc23)CCCC1 = 0.35
10) CCC(C)(CO)Nc1ncnc2[nH]ccc12 (centres unmarked) = 0.39
11) OCC(Nc1ncnc2[nH]ccc12)C1CC1 (centres unmarked) = 0.38
12) CC(c1ccccc1)C(CO)Nc1ncnc2[nH]ccc12 (centres unmarked) = 0.33
13) Cc1c[nH]c2ncnc(NCC3(O)CCCC3)c12 = 0.36
14) O=C(O)C(F)(F)F.OCC1(Nc2ncnc3[nH]ccc23)CCC1 = 0.38

====

target: SARS-CoV-2 NSP3 macrodomain (Mac1) (Severe acute respiratory syndrome coronavirus 2, UniProt P0DTD1); assay: biochemical; assay type: binding; conditions: Single dose, 200 μM; mean of three technical replicates
Reported Average % competition values follow for various molecules
Quantity Measured: Average % competition

1. Cc1ncc(CN(C)C(=O)c2cccc(N)c2F)s1 = 14%
2. Cc1nc(-c2cccc(NC(=O)NCc3cccs3)c2)n[nH]1 = 20%
3. Nc1cc(N2CCC3CCCCC3C2)ncn1 (stereo not drawn) = <10%
4. O=C(O)C1CN(C(=O)c2cccc3[nH]ccc23)c2ccccc21 (stereo not drawn) = 32%
5. O=C1COc2cc(C(=O)N3CC(C(=O)O)c4ccccc43)ccc2N1 (stereo not drawn) = 21%
6. O=c1[nH]c2ccccc2cc1CNc1nc(C2CC2)ns1 = <10%
